Target: HLA-A*02:01
Measurement Protocol: IEDB peptide-MHC binding, purified MHC/direct/fluorescence; filed as Kd, often an IC50 or EC50 that approximates it; bounds were set here for any values at or beyond the usual limits of such assays
Reported Conditions: source organism: Escherichia coli O157:H7
pKd: −log10 of the molar value.
Measured Metric: pKd

I: VLFIHPLDA
II: NLPSKPVWL
Please indicate which item has the smaller measured pKd: I versus II Mark your answer with the label of the selected entry.
II
(II: 5.16, I: 7.19)

###

Target: HLA-B*15:42
Measurement Protocol: IEDB peptide-MHC binding, purified MHC/competitive/fluorescence; filed as Kd, often an IC50 or EC50 that approximates it; bounds were set here for any values at or beyond the usual limits of such assays
Reported Conditions: source organism: Shewanella sp. W3-18-1
Measured Metric: Kd

If you can, please state the reported Kd value of LMMSSPPPI .
≥ 5 µM

###

Target: HLA-A*03:01
Measurement Protocol: IEDB peptide-MHC binding, purified MHC/competitive/radioactivity; filed as Kd, often an IC50 or EC50 that approximates it; bounds were set here for any values at or beyond the usual limits of such assays
Reported Conditions: source organism: Mammarenavirus juninense
Measured Metric: Kd (µM)
Provide the reading as a plain figure in µM.

If you can, please state the reported Kd value of NKQYIHCFRK .
0.973

###

Target: HLA-B*58:01
Measurement Protocol: IEDB peptide-MHC binding, purified MHC/direct/fluorescence; filed as Kd, often an IC50 or EC50 that approximates it; bounds were set here for any values at or beyond the usual limits of such assays
Reported Conditions: source organism: Francisella tularensis subsp. tularensis FSC033
Measured Metric: Kd (nM)
Provide the reading as a plain figure in nM.

If you can, please state the reported Kd value of IYTVIYYIF .
150

###

Target: HLA-A*30:01
Measurement Protocol: IEDB peptide-MHC binding, purified MHC/competitive/radioactivity; filed as Kd, often an IC50 or EC50 that approximates it; bounds were set here for any values at or beyond the usual limits of such assays
Reported Conditions: source organism: Lymphocytic choriomeningitis virus (strain WE)
Measured Metric: pKd
As a rule, pKd stands for the negative log10 of the concentration, concentration in M.

If you can, please state the reported pKd value of MTKEASREY .
6.97

###

Target: HLA-B*40:01
Measurement Protocol: IEDB peptide-MHC binding, purified MHC/direct/fluorescence; filed as Kd, often an IC50 or EC50 that approximates it; bounds were set here for any values at or beyond the usual limits of such assays
Reported Conditions: source organism: Escherichia coli
Measured Metric: Kd

If you can, please state the reported Kd value of LAAPCRNAL .
≥ 20 µM

###

Target: HLA-A*68:23
Measurement Protocol: IEDB peptide-MHC binding, purified MHC/competitive/fluorescence; filed as Kd, often an IC50 or EC50 that approximates it; bounds were set here for any values at or beyond the usual limits of such assays
Reported Conditions: source organism: Salmonella enterica subsp. enterica serovar Typhi
Measured Metric: pKd
As a rule, pKd stands for the negative log10 of the concentration, concentration in M.

If you can, please state the reported pKd value of MTMLTRWKI .
9.52

###

Target: HLA-A*02:01
Measurement Protocol: IEDB peptide-MHC binding, purified MHC/competitive/fluorescence; filed as Kd, often an IC50 or EC50 that approximates it; bounds were set here for any values at or beyond the usual limits of such assays
Reported Conditions: source organism: Vibrio parahaemolyticus K5030
Measured Metric: Kd

Please provide the recorded Kd for WLGDVWQEK , tested on HLA-A*02:01.
≥ 20 µM
